Data origin, for the record: the OligoGym collection

Catalogue of sensor-assay potency score (higher = more potent) readings, one per entry.
Target: PIP5KL1
Test: pooled miR-30 sensor sort-seq; sequence = guide strand; also: reference of the scale not given here
Settings: shRNA
MEASUREMENT_TYPE: sensor-assay potency score (higher = more potent)

- SEQ: "TATCAGGAGGCTGTAATCCAGC"
  OBSERVED_VALUE: -1.11
- SEQ: "TTTGATGTCATACCTCTCGGAG"
  OBSERVED_VALUE: -0.872
- SEQ: "TTGAGCTCCCGGAGGAAGGTGG"
  OBSERVED_VALUE: -0.608
- SEQ: "TAGCGCAGTGTCTTCCACAGGT"
  OBSERVED_VALUE: 0.0204
- SEQ: "TTGATGTCATACCTCTCGGAGA"
  OBSERVED_VALUE: -1.04
- SEQ: "TAATCCAGCACGTTGAGCTCCC"
  OBSERVED_VALUE: -0.232
- SEQ: "TTTGGGCTCTCGACTCTTCCGG"
  OBSERVED_VALUE: -0.891
- SEQ: "TTGCGGAGCCCGTAGACTGTGG"
  OBSERVED_VALUE: -1.6

---

Target: ADRB1
Assay: pooled miR-30 sensor sort-seq; sequence = guide strand
Conditions: shRNA
MEASUREMENT_TYPE: sensor-assay potency score (higher = more potent)

- SEQ: "TTGGGGTCGTTGTAGCAGCGGC"
  MEASUREMENT_TARGET: "ADRB1"
  OBSERVED_VALUE: -1.11
- SEQ: "TTGAGCGCCTTCTGCTCGCGCA"
  MEASUREMENT_TARGET: "ADRB1"
  OBSERVED_VALUE: -1.01
- SEQ: "TTGGTGAGCGTCTGCAGCCGCG"
  MEASUREMENT_TARGET: "ADRB1"
  OBSERVED_VALUE: -1.38
- SEQ: "TTGGTGACGAAGTCGCAGCACT"
  MEASUREMENT_TARGET: "ADRB1"
  OBSERVED_VALUE: -0.788
- SEQ: "TCGCTGTCCGCCGCCGCCCCGC"
  MEASUREMENT_TARGET: "ADRB1"
  OBSERVED_VALUE: -1.6
- SEQ: "TTGAAGAAGACGAAGAGGCGGT"
  MEASUREMENT_TARGET: "ADRB1"
  OBSERVED_VALUE: 0.771
- SEQ: "ACGCACAGCACGTCCACTGAGG"
  MEASUREMENT_TARGET: "ADRB1"
  OBSERVED_VALUE: -1.84
- SEQ: "ACACACAGGGTCTCGATGCTGG"
  MEASUREMENT_TARGET: "ADRB1"
  OBSERVED_VALUE: -0.4

---

Entries and their measured sensor-assay potency score (higher = more potent) follow.
Target: CHI3L1
Assay: pooled miR-30 sensor sort-seq; sequence = guide strand
Conditions: shRNA
MEASUREMENT_TYPE: sensor-assay potency score (higher = more potent)

- SEQ: "TTGCTTTTGACGCTTTCCTGGT"
  OBSERVED_VALUE: -0.698
- SEQ: "TATATTGGCAAAGCTGTAGATG"
  OBSERVED_VALUE: -1.02
- SEQ: "TAGCAGACCAGTTTGTATGCAG"
  OBSERVED_VALUE: 0.269
- SEQ: "TAGAGCGTCACATCATTCCACT"
  OBSERVED_VALUE: -0.926
- SEQ: "TTGAGTGTGTTGAGCATGCCGT"
  OBSERVED_VALUE: -0.388
- SEQ: "TTGCATCCTCCTGACCTCGGAA"
  OBSERVED_VALUE: -0.718
- SEQ: "TTCCTTTATAAATTCGGCCTTC"
  OBSERVED_VALUE: -0.526
- SEQ: "TTCAGGTACTGCACCTTGCTTT"
  OBSERVED_VALUE: -0.412
- SEQ: "TTGTATGCAGAGCAGCACTGGA"
  OBSERVED_VALUE: -1.21
- SEQ: "TCTGTCAGGACTTGCATCCTCC"
  OBSERVED_VALUE: -0.579
- SEQ: "AAATCGTAGGTCATGATGCTAA"
  OBSERVED_VALUE: -0.871

---

Molecular target: DMBX1
Assay: pooled miR-30 sensor sort-seq; sequence = guide strand
Conditions: shRNA
The threshold is inclusive: sensor-assay potency score (higher = more potent) of exactly -1 counts as TRUE; values below receive FALSE.

- SEQ: "TTACTGTTCAGGGTAGCTGATG"
  MEASUREMENT_TARGET: "DMBX1"
  GROUP_LABEL: "FALSE"
- SEQ: "TGACTGCTCAGACAGACTCAGG"
  MEASUREMENT_TARGET: "DMBX1"
  GROUP_LABEL: "FALSE"
- SEQ: "TTGAACCACACCTGCACCCGGG"
  MEASUREMENT_TARGET: "DMBX1"
  GROUP_LABEL: "TRUE"
- SEQ: "TCACGCATCACCACATCTGGGT"
  MEASUREMENT_TARGET: "DMBX1"
  GROUP_LABEL: "TRUE"
- SEQ: "TCTGGGTAGTGAGTCTTCTGGA"
  MEASUREMENT_TARGET: "DMBX1"
  GROUP_LABEL: "TRUE"
- SEQ: "TTTTACTGTTCAGGGTAGCTGA"
  MEASUREMENT_TARGET: "DMBX1"
  GROUP_LABEL: "TRUE"

---

Listing of entries alongside the reported sensor-assay potency score (higher = more potent).
Molecular target: EIF1
Assay: pooled miR-30 sensor sort-seq; sequence = guide strand
Conditions: shRNA
MEASUREMENT_TYPE: sensor-assay potency score (higher = more potent)

- SEQ: "AATTACTTCTCCATATTCCGGA"
  OBSERVED_VALUE: 0.541
- SEQ: "TTGGACAGTAGTAAGGGTCTTC"
  OBSERVED_VALUE: 0.328
- SEQ: "TCAATTACAGTACCATTGCAGG"
  OBSERVED_VALUE: -1.4
- SEQ: "TGTAGCTGAATTACTTCTCCAT"
  OBSERVED_VALUE: 0.149
- SEQ: "TTTTATCGTAATCATCAGCGAT"
  OBSERVED_VALUE: -0.796
- SEQ: "TTACTTGCATCAGCAAAGGGGT"
  OBSERVED_VALUE: -1.07

---

Target: BST2
Assay: pooled miR-30 sensor sort-seq; sequence = guide strand
Details: shRNA
Label scheme for sensor-assay potency score (higher = more potent): lower bin = under -1, middle bin = from -1 up to -0.5, upper bin = -0.5 and over

- SEQ: "TTCTCAGTCGCTCCACCTCTGC"
  MEASUREMENT_TARGET: "BST2"
  GROUP_LABEL: "lower bin"
- SEQ: "TCTCACGCTTAAGACCTGGTTT"
  MEASUREMENT_TARGET: "BST2"
  GROUP_LABEL: "upper bin"
- SEQ: "ATTCTCACGCTTAAGACCTGGT"
  MEASUREMENT_TARGET: "BST2"
  GROUP_LABEL: "upper bin"
- SEQ: "TCAAGCTCCTCCACTTTCTTTT"
  MEASUREMENT_TARGET: "BST2"
  GROUP_LABEL: "middle bin"
- SEQ: "TCGCTGTTGGCCTTGATGGTGA"
  MEASUREMENT_TARGET: "BST2"
  GROUP_LABEL: "lower bin"
- SEQ: "TTTGTCCTTGGGCCTTCTCTGC"
  MEASUREMENT_TARGET: "BST2"
  GROUP_LABEL: "lower bin"
- SEQ: "TACAGCGCTTATCCCCGTCTTC"
  MEASUREMENT_TARGET: "BST2"
  GROUP_LABEL: "lower bin"
- SEQ: "TTCTCTTCTCAGTCGCTCCACC"
  MEASUREMENT_TARGET: "BST2"
  GROUP_LABEL: "upper bin"
- SEQ: "TAGTACTTCTTGTCCGCGATTC"
  MEASUREMENT_TARGET: "BST2"
  GROUP_LABEL: "lower bin"
- SEQ: "TGAAGCTTATGGTTTAATGTAG"
  MEASUREMENT_TARGET: "BST2"
  GROUP_LABEL: "upper bin"
- SEQ: "TACTTCTTGTCCGCGATTCTCA"
  MEASUREMENT_TARGET: "BST2"
  GROUP_LABEL: "middle bin"
- SEQ: "TTTCTCTTCTCAGTCGCTCCAC"
  MEASUREMENT_TARGET: "BST2"
  GROUP_LABEL: "upper bin"
- SEQ: "TGGTTTTCTCTTCTCAGTCGCT"
  MEASUREMENT_TARGET: "BST2"
  GROUP_LABEL: "middle bin"
- SEQ: "TTGATGGTGAAGATAATCAAGG"
  MEASUREMENT_TARGET: "BST2"
  GROUP_LABEL: "lower bin"
- SEQ: "TCAGTCGCTCCACCTCTGCAGA"
  MEASUREMENT_TARGET: "BST2"
  GROUP_LABEL: "lower bin"
